# study-target: Gamma-secretase
# protocol-details: Inhibition of amyloid-beta production in Chinese hamster ovary (CHO) cells expressing human amyloid precursor protein (APP)
measurement-label: IC50
Returns: string containing the numeric result and its unit.

Consider the reported IC50 for these compounds:
COC(=O)[C@H](Cc1ccccc1)NC(=O)[C@H](CC(C)C)NC(=O)N(CC(C)C)C[C@@H](O)[C@H](Cc1ccccc1)NC(=O)OC(C)(C)C :: 0.4 µM
COC(=O)[C@@H](NC(=O)[C@H](CC(C)C)NC(=O)N(Cc1ccccc1)C[C@@H](O)[C@H](Cc1ccccc1)NC(=O)[C@H](Cc1ccccc1)NC(=O)OC(C)(C)C)C(C)C :: 0.5 µM

// switching to the query compound
Q: Item COC(=O)[C@H](CC(C)C)NC(=O)N(Cc1ccccc1)C[C@@H](O)[C@H](Cc1ccccc1)NC(=O)OC(C)(C)C has what recorded IC50?
A: 8 µM
